meta.source: patent US12144795B2

assay: Cannabidiol solubility in neat solvents and mixtures, isooctane solubility curve; format: physicochemical; settings: IPOAc, organic solvent or mixture; read-out: Solubility at RT
quantity: solubility

| mol smiles | quantity | result |
| --- | --- | --- |
| C=C(C)[C@@H]1CCC(C)=C[C@H]1c1c(O)cc(CCCCC)cc1O | solubility | > 100 mg/mL |

----------
Assay: Quantitative thermodynamic solubility determination at ambient temperature, evaporated solids analyzed by XRPD
Type: physicochemical
Conditions: organic solvent or mixture, thermodynamic from solid; Diethyl ether, ambient temperature
Experimental: A quantitative thermodynamic solubility determination was performed on crude cannabidiol obtained via Protocol 2 to aid in the selection of solvents for crystallization experiments. The clear solutions obtained from each solubility determination experiment were evaporated and the obtained solids were analyzed by XRPD. […]
quantity: solubility

| mol smiles | quantity | result |
| --- | --- | --- |
| C=C(C)[C@@H]1CCC(C)=C[C@H]1c1c(O)cc(CCCCC)cc1O | solubility | > 100 mg/mL |

----------
Assay: Cannabidiol solubility in neat solvents and mixtures, isooctane solubility curve
Type: physicochemical
Settings: chloroform, organic solvent or mixture; read-out: Solubility at RT
Description: Isooctane was selected as the final crystallization solvent due the low solubility and similar properties to heptane, i.e., low viscosity and boiling point relative to other higher hydrocarbons (Table 33). Based on the solubility and desire to maximize yield, an isooctane volume of 4.0 L/kg was selected as an appropriate crystallization concentration. Prior to crystallization, it was desired to fully dissolve the CBD in isooctane and filter the process stream. […]

| compound | solubility |
| --- | --- |
| C=C(C)[C@@H]1CCC(C)=C[C@H]1c1c(O)cc(CCCCC)cc1O [CBD] | > 100 mg/mL |

----------
test: Cannabidiol solubility in neat solvents and mixtures, isooctane solubility curve; format: physicochemical; details: 30/70 water/ethanol, organic solvent or mixture; read-out: Solubility at RT
quantity: solubility

| compound | quantity | result |
| --- | --- | --- |
| C=C(C)[C@@H]1CCC(C)=C[C@H]1c1c(O)cc(CCCCC)cc1O [CBD] | solubility | 20 to 70 mg/mL |

----------
test: Cannabidiol solubility in neat solvents and mixtures, isooctane solubility curve; assay type: physicochemical; conditions: 1,2-dimethoxyethane, organic solvent or mixture; read-out: Solubility at RT
quantity: solubility

| mol smiles | result |
| --- | --- |
| C=C(C)[C@@H]1CCC(C)=C[C@H]1c1c(O)cc(CCCCC)cc1O | > 100 mg/mL |

----------
test: Quantitative thermodynamic solubility determination at ambient temperature, evaporated solids analyzed by XRPD; assay type: physicochemical; conditions: organic solvent or mixture, thermodynamic from solid; Methanol, ambient temperature

| mol smiles | solubility |
| --- | --- |
| C=C(C)[C@@H]1CCC(C)=C[C@H]1c1c(O)cc(CCCCC)cc1O | > 100 mg/mL |

----------
Assay: Cannabidiol solubility in neat solvents and mixtures, isooctane solubility curve
Assay type: physicochemical
Conditions: 50/50 water/ethanol, aqueous with cosolvent or surfactant or cyclodextrin; read-out: Solubility at RT
Source text: Isooctane was selected as the final crystallization solvent due the low solubility and similar properties to heptane, i.e., low viscosity and boiling point relative to other higher hydrocarbons (Table 33). Based on the solubility and desire to maximize yield, an isooctane volume of 4.0 L/kg was selected as an appropriate crystallization concentration. Prior to crystallization, it was desired to fully dissolve the CBD in isooctane and filter the process stream. […]

| mol smiles | solubility |
| --- | --- |
| C=C(C)[C@@H]1CCC(C)=C[C@H]1c1c(O)cc(CCCCC)cc1O | < 5000 µg/mL |
